system: Avena fatua (AVEFA); assay: Example A pre-emergence herbicidal activity, glasshouse pot test; assay type: in vivo; details: 480 h, rate 500 g/ha, evaluated 20 days later, 100=total damage to plant, 0=no damage to plant
Output fulfilled for records whose pest or weed control at 500 g/ha is lower than 60%, not fulfilled for records at or above 60%.

Field: example entries. Status: answers known.
                                   molecule  qualitative_label
0  Cc1ccc(-c2ccc(Cl)cc2)cc1C1=C(O)CC(CC2CCOC2)CC1=O (stereo not drawn)          fulfilled
1  Cc1cc(C)c(C2=C(O)CC(C(C)C3CCOCC3)CC2=O)c(C)c1 (stereo not drawn)          fulfilled
2  CCc1cc(CC)c(C2=C(O)CC(C(C)C3CCOCC3)CC2=O)c(CC)c1 (stereo not drawn)          fulfilled
3  Cc1ccc(-c2ccc(Cl)cc2)cc1C1=C(O)CC(C(C)C2CCOCC2)CC1=O (stereo not drawn)          fulfilled
4  CCc1cc(C)cc(CC)c1C1=C(O)CC(C(C)C2CCOC2)CC1=O (stereo not drawn)      not fulfilled

# TODO verify pest or weed control at 500 g/ha < 60% strictly for this molecule: CCc1cc(C)cc(CC)c1C1=C(O)CC(CC2CCS(=O)(=O)CC2)CC1=O (stereo not drawn)
not fulfilled

# TODO verify pest or weed control at 500 g/ha < 60% strictly for this molecule: Cc1cc(C)c(C2=C(O)CC(CC3CCOC3)CC2=O)c(C)c1 (stereo not drawn)
fulfilled

# TODO verify pest or weed control at 500 g/ha < 60% strictly for this molecule: CCc1cc(C)cc(CC)c1C1=C(O)CC(CC2CC[S+]([O-])CC2)CC1=O (stereo not drawn)
not fulfilled

# TODO verify pest or weed control at 500 g/ha < 60% strictly for this molecule: CCc1ccc(-c2ccc(Cl)cc2)cc1C1=C(O)CC(CC2CCOC2)CC1=O (stereo not drawn)
fulfilled
